Assay: BET inhibitor-based combinations targeting novel dependencies in MECOM-rearranged (r) AML: HNT-34 cell line (AID 2202234); note: nearly all actives have a fitted effect of over 35% in size
Details: HNT-34 AML viability, CellTiter-Glo luminescence, 48 h; series mostly up to 46 µM
Inconclusive results are not listed. Activity calls are given as the source filed them. Calls come from the whole dose curve; as a rule, active = well fitted inhibition curve with a large enough effect; inconclusive = small, poorly fitted or top-dose-only effect; inactive = no such curve, though single readings can be large or run the other way.
Classes used: active, inactive

>  <compound>
Fc1ccc(-c2nc(-c3ccccc3F)[nH]c2-c2ccncc2)cc1

>  <discrete_label>
inactive

$$$$
>  <compound>
CC[C@]1(O)C[C@H]2CN(CCc3c([nH]c4ccccc34)[C@@](C(=O)OC)(c3cc4c(cc3OC)N(C=O)[C@H]3[C@@](O)(C(=O)OC)[C@H](OC(C)=O)[C@]5(CC)C=CCN6CC[C@]43[C@@H]65)C2)C1

>  <discrete_label>
active

$$$$
>  <compound>
Clc1ccccc1C(c1ccccc1)(c1ccccc1)n1ccnc1

>  <discrete_label>
active

$$$$
>  <compound>
CCCOc1ccn2c(C(C)=O)cc(-c3ccccc3S(C)(=O)=O)c2c1

>  <discrete_label>
active

$$$$
>  <compound>
CC1(C)O[C@@H]2C[C@H]3[C@@H]4CCC5=CC(=O)C=C[C@]5(C)[C@@]4(F)[C@@H](O)C[C@]3(C)[C@]2(C(=O)CO)O1

>  <discrete_label>
inactive

$$$$
>  <compound>
CCN(c1ccccc1)c1cc(NC)[n+](C)c(C)n1

>  <discrete_label>
inactive

$$$$
>  <compound>
O=C(O)c1cn(-c2ccc(F)cc2)c2cc(N3CCNCC3)c(F)cc2c1=O

>  <discrete_label>
inactive

$$$$
>  <compound>
CN(C)C(=O)C(CCN1CCC(O)(c2ccc(Cl)cc2)CC1)(c1ccccc1)c1ccccc1

>  <discrete_label>
active

$$$$
>  <compound>
CC1=NN(c2ccccc2)C(=O)C1

>  <discrete_label>
inactive

$$$$
>  <compound>
CNC(=O)c1cc(Oc2ccc(NC(=O)Nc3ccc(Cl)c(C(F)(F)F)c3)c(F)c2)ccn1

>  <discrete_label>
active

$$$$
>  <compound>
O=c1c(O)c(-c2ccc(O)c(O)c2)oc2cc(O)cc(O)c12

>  <discrete_label>
inactive

$$$$
>  <compound>
CCc1cc(C(N)=O)ccc1-n1nc(C(C)C)c2c(-n3cnc(-c4cnn(C)c4)c3)ccnc21

>  <discrete_label>
active

$$$$
>  <compound>
c1ccc([C@H]2CN3CCSC3=N2)cc1

>  <discrete_label>
inactive

$$$$
>  <compound>
CCCCCCCCc1ccc(CCC(N)(CO)CO)cc1

>  <discrete_label>
active

$$$$
>  <compound>
CC(C)(C)c1cc(C(=O)O)c(NC(=O)Nc2ccc3[nH]ncc3c2)s1

>  <discrete_label>
inactive

$$$$
>  <compound>
CCCCCCCCCC(=O)N[C@@H](Cc1c[nH]c2ccccc12)C(=O)N[C@H](CC(N)=O)C(=O)N[C@@H](CC(=O)O)C(=O)N[C@@H]1C(=O)NCC(=O)N[C@@H](CCCN)C(=O)N[C@@H](CC(=O)O)C(=O)N[C@H](C)C(=O)N[C@@H](CC(=O)O)C(=O)NCC(=O)N[C@H](CO)C(=O)N[C@@H]([C@@H](C)CC(=O)O)C(=O)N[C@@H](CC(=O)c2ccccc2N)C(=O)O[C@@H]1C

>  <discrete_label>
inactive

$$$$
>  <compound>
Cc1ccc(S(=O)(=O)NC(=O)NN2CC3CCCC3C2)cc1 (configuration not stated)

>  <discrete_label>
inactive

$$$$

###

Test: BET inhibitor-based combinations targeting novel dependencies in MECOM-rearranged (r) AML: HNT-34 cell line (AID 2202234); note: nearly all actives have a fitted effect of over 35% in size
Conditions: HNT-34 AML viability, CellTiter-Glo luminescence, 48 h; series mostly up to 46 µM
Results filed as inconclusive are left out. The source made the active and inactive calls. Calls follow the shape of the dose curve; as a rule, active = well fitted inhibition curve with a large enough effect; inconclusive = small, poorly fitted or top-dose-only effect; inactive = no such curve, though single readings can be large or run the other way.
Classes used: active, inactive

>  <compound>
NCCS(=O)(=O)O

>  <discrete_label>
inactive

$$$$
>  <compound>
Cc1cnc(Nc2ccc(N3CCN(C)CC3)cc2)nc1Nc1cccc(S(=O)(=O)NC(C)(C)C)c1

>  <discrete_label>
active

$$$$
>  <compound>
Cc1cc(C2CCCCC2)n(O)c(=O)c1

>  <discrete_label>
active

$$$$
>  <compound>
COCCOc1ccc(N2CCN(CCn3ncc4c3nc(N)n3nc(-c5ccco5)nc43)CC2)cc1

>  <discrete_label>
inactive

$$$$
>  <compound>
CC(C)C[C@@H](C(=O)N[C@H](C(=O)OC1CCCC1)c1ccccc1)[C@H](O)C(=O)NO

>  <discrete_label>
active

$$$$
>  <compound>
c1ccc2c(-c3cnn4cc(-c5ccc(N6CCNCC6)cc5)cnc34)ccnc2c1

>  <discrete_label>
active

$$$$
>  <compound>
c1cnc2cc3c(cc2n1)C1CNCC3C1

>  <discrete_label>
inactive

$$$$
>  <compound>
CC(C)OC(=O)C(C(=O)OC(C)C)=C1SC=CS1

>  <discrete_label>
inactive

$$$$
>  <compound>
Cc1cc(O)c(-c2ccc([C@@H](C)CN(C)C)cc2)c2c1[nH]c(=O)c1sccc12

>  <discrete_label>
active

$$$$
>  <compound>
CS(=O)(=O)c1cccc(CNc2nc(Nc3ccc4c(c3)CCC(=O)N4)ncc2C(F)(F)F)c1

>  <discrete_label>
active

$$$$
>  <compound>
Nc1ccccc1NC(=O)c1ccc(CNC(=O)OCc2cccnc2)cc1

>  <discrete_label>
active

$$$$
>  <compound>
CCn1cc(C(=O)O)c(=O)c2cc(F)c(N3CCNC(C)C3)c(F)c21 (stereo unspecified)

>  <discrete_label>
inactive

$$$$
>  <compound>
Cn1nnc2c(C(N)=O)ncn2c1=O

>  <discrete_label>
inactive

$$$$
>  <compound>
CCC[C@H](N[C@@H](C)C(=O)N1[C@@H]2CCCC[C@H]2C[C@H]1C(=O)O)C(=O)OCC

>  <discrete_label>
inactive

$$$$
>  <compound>
NC(=O)c1ccc2nc(-c3ccc(Oc4ccc(Cl)cc4)cc3)[nH]c2c1

>  <discrete_label>
active

$$$$
>  <compound>
CC(C(=O)O)c1cccc(C(=O)c2ccccc2)c1 (stereo unspecified)

>  <discrete_label>
inactive

$$$$
>  <compound>
OC[C@H](Cc1ccccc1)Nc1nc(Oc2ccc3c(c2)CCC3)nc2c1ncn2Cc1ccc(-c2ccccc2)cc1

>  <discrete_label>
active

$$$$
>  <compound>
CNC(=O)c1ccc(-c2cnc3ncc(Cc4ccc5ncccc5c4)n3n2)cc1F

>  <discrete_label>
active

$$$$
>  <compound>
CNc1nc(C)nc(N[C@H]2CCC[C@@H](C(=O)NCc3ccc(C#N)cc3C(F)(F)F)C2)n1

>  <discrete_label>
inactive

$$$$
>  <compound>
CN(C)C1CCN(C(=O)c2ccc(NC(=O)Nc3ccc(-c4nc(N5CCOCC5)nc(N5CCOCC5)n4)cc3)cc2)CC1

>  <discrete_label>
active

$$$$
>  <compound>
CCOC(=O)[C@H]1O[C@@H]1C(=O)N[C@@H](CC(C)C)C(=O)NCCC(C)C

>  <discrete_label>
inactive

$$$$

###

Assay: qHTS for Inhibitors of the Aldehyde Dehydrogenase Family (ALDH1A2, ALDH1A3, ALDH2, ALDH3A1) (AID 2061307); note: nearly all actives have a fitted effect of over 50% in size; for Potency: test system not described further here; potency is the fitted concentration of half-maximal effect
Details: ALDH inhibition qHTS; series mostly up to 50.3 µM
Inconclusive results are not listed. The source made the active and inactive calls. Calls follow the shape of the dose curve; as a rule, active = well fitted inhibition curve with a large enough effect; inconclusive = small, poorly fitted or top-dose-only effect; inactive = no such curve, though single readings can be large or run the other way. Residues, ends and D or L forms follow the SMILES beside them. *: point of attachment. Cbz = O=C(OCc1ccccc1)*; CH2Cl = ClC*
endpoint_label: Potency

>  <compound>
N=C(N)c1ccc(N)cc1

>  <result>
inactive

$$$$
>  <compound>
O=C(Nc1ccc2ccccc2c1)Nc1nnc(Br)s1

>  <result>
15.8 µM (active)

$$$$
>  <compound>
CC(C)Nc1cc(-c2c[nH]c(C(=O)N[C@H](CO)c3cccc(Cl)c3)c2)c(Cl)cn1

>  <result>
inactive

$$$$
>  <compound>
Cn1ncc(-c2nnc(-c3ccccc3)n2CCCn2ccnc2)c1N

>  <result>
inactive

$$$$
>  <compound>
Cc1nnc(-c2sc(NC(=O)[C@H](C(C)C)n3c(=O)[nH]c4ccccc4c3=O)nc2C)o1

>  <result>
inactive

$$$$
>  <compound>
Oc1ccc(CNc2cccnc2)c2cccnc12

>  <result>
7.98 µM (active)

$$$$
>  <compound>
CC(C)C[C@H](NC(=O)CNC(=O)OCc1ccccc1)C(=O)N[C@@H](Cc1ccccc1)C(=O)CCl (Cbz-Gly-Leu-Phe-CH2Cl)

>  <result>
inactive

$$$$
>  <compound>
COc1ccc(CCO[C@@H]2CCCC[C@H]2N2CC[C@@H](O)C2)cc1OC

>  <result>
inactive

$$$$
>  <compound>
COc1ccccc1-c1cc(-c2ccccc2OC)c2onc(C)c2n1

>  <result>
inactive

$$$$
>  <compound>
COc1cccc(OC)c1C1=Nn2c(nnc2-c2ccccc2C)SC1

>  <result>
inactive

$$$$
>  <compound>
Cn1ncc(S(=O)(=O)Cc2ccccc2)c(Br)c1=O

>  <result>
inactive

$$$$
>  <compound>
COc1cccc(Nc2nc(C#N)nc(NC3CCCC3)n2)c1

>  <result>
10.1 µM (active)

$$$$
>  <compound>
O=C(Nc1ccc(Cl)c(Cl)c1)Nc1cccc(-c2ccncc2)n1

>  <result>
inactive

$$$$
>  <compound>
COc1ccc(C=O)cc1COc1ccc(NC(C)=O)cc1

>  <result>
0.318 µM (active)

$$$$
>  <compound>
O=C(O)c1cccc(S(=O)(=O)Nc2nccs2)c1

>  <result>
inactive

$$$$
>  <compound>
COc1cc(F)cc(F)c1[S+](=O)([O-])N1CCN([S+](=O)([O-])c2ccc3c(c2)OCCO3)CC1

>  <result>
inactive

$$$$
>  <compound>
O=C(O)c1cnn(-c2nc3cc(OC(F)(F)F)c(Cl)cc3[nH]2)c1

>  <result>
13.5 µM (active)

$$$$
>  <compound>
COc1ccc(NC(=O)N2CCc3c2ccc2ccccc32)cc1N1CCN(C)CC1

>  <result>
inactive

$$$$
>  <compound>
Cc1ccc(NS(=O)(=O)c2ccc3c(c2)CC(=O)N3)cc1C

>  <result>
inactive

$$$$
>  <compound>
CC(C)N(CCC(=O)c1ccc2ccccc2c1)Cc1ccccc1

>  <result>
0.0127 µM (active)

$$$$
>  <compound>
COc1nc2ccc(Br)cc2cc1[C@@H](c1ccccc1)[C@@](O)(CCN(C)C)c1cccc2ccccc12

>  <result>
0.896 µM (active)

$$$$
>  <compound>
O=c1cc(CN2CCOCC2)occ1OCCCCCSc1ccnc2cc(C(F)(F)F)ccc12

>  <result>
22.5 µM (active)

$$$$
>  <compound>
CC(C)(C)OC(=O)N1CCN(c2cnc(NCc3ccc(-c4ccc(C#N)cc4)o3)nc2)CC1

>  <result>
5.65 µM (active)

$$$$
>  <compound>
O=S(=O)(O)c1ccc2cc(N=Nc3cc(S(=O)(=O)O)c4cccnc4c3O)ccc2c1

>  <result>
inactive

$$$$
>  <compound>
CN1CCN(CC(=O)N2c3ccccc3C(=O)Nc3cccnc32)CC1

>  <result>
inactive

$$$$
>  <compound>
COc1c(C(C)C)c(O)c(O)c2c1C(OC)[C@H]1OC(=O)[C@@]23CCCC(C)(C)[C@H]13 (some centres not stated)

>  <result>
inactive

$$$$
>  <compound>
O=S(=O)(NCCc1nnc2ccc(SCc3ccc(C(F)(F)F)cc3)nn12)c1ccccc1

>  <result>
inactive

$$$$
>  <compound>
CCOc1ccc(-c2nc(CSCC(=O)N3CCN(c4cccc(C(F)(F)F)c4)CC3)c(C)o2)cc1

>  <result>
7.94 µM (active)

$$$$
>  <compound>
C[C@@H]1CN(Cc2ncccn2)C[C@H]1c1nc2c(cnn2C2CCOCC2)c(=O)[nH]1

>  <result>
inactive

$$$$
>  <compound>
CC(C)(C)OC(=O)N1CCN(c2ccc(NCc3ccc(-c4ccc(C#N)cc4)o3)cn2)CC1

>  <result>
6.31 µM (active)

$$$$
>  <compound>
O=C(Nc1ccc(Cl)c(Cl)c1)Nc1ccc(-c2ccncc2)s1

>  <result>
inactive

$$$$
>  <compound>
FC(F)(F)c1ccccc1-c1nc(NCc2ccc(Cl)cc2)c2ccccc2n1

>  <result>
inactive

$$$$
>  <compound>
N#Cc1ccc2[nH]cc(CCCCN3CCN(c4ccc5oc(C(N)=O)cc5c4)CC3)c2c1

>  <result>
2.24 µM (active)

$$$$
>  <compound>
CC1CCC23COC(=O)C2=CC(O)CC3C1(C)CCC1=CC(O)OC1=O (configuration not stated)

>  <result>
inactive

$$$$
>  <compound>
O=C(O)c1ccccc1SC1=NS(=O)(=O)c2ccccc21

>  <result>
inactive

$$$$
>  <compound>
COc1cc2c3c(cc4ccccc4c3c1O)NC2=O

>  <result>
inactive

$$$$
>  <compound>
CC(C)(CC(=O)N1CCCC1)NCC(=O)N1C[C@@H](F)C[C@H]1C#N

>  <result>
inactive

$$$$
>  <compound>
O=[N+]([O-])c1ccccc1CSc1nc2ncc(Br)cc2[nH]1

>  <result>
inactive

$$$$
>  <compound>
CCN(CC)CCOc1ccc(Nc2ncc3cc(-c4c(Cl)cccc4Cl)c(=O)n(C)c3n2)cc1

>  <result>
inactive

$$$$
>  <compound>
COc1cccc(-c2ccc(CN3CCCC(NC(=O)Nc4ccccc4)C3)cc2)c1 (configuration not stated)

>  <result>
12.6 µM (active)

$$$$
>  <compound>
NC(=O)C1CCN(c2ncc(-c3ccc4c(c3)OCCO4)s2)CC1

>  <result>
7.12 µM (active)

$$$$
>  <compound>
CC(C)(C)OC(=O)N1CCN(c2ccc(NCc3coc(-c4ccc(C#N)cc4)c3)cc2)CC1

>  <result>
inactive

$$$$
